Recorded Ki values (UniProtKB P19020) are given below.
Sequence (P19020 whole entry): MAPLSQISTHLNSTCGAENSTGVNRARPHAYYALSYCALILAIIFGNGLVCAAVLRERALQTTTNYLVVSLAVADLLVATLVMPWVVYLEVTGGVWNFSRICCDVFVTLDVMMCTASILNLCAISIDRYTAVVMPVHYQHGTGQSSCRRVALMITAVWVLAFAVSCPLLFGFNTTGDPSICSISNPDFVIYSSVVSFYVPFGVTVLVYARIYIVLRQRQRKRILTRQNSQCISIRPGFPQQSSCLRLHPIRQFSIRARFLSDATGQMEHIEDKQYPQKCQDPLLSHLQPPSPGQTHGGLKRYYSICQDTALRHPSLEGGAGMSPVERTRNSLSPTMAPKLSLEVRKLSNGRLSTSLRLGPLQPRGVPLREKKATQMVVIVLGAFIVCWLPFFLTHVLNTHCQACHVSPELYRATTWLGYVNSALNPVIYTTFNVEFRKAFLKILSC
Answer by giving the amount and then stating its unit.

1. CCCN(CCN1CCN(c2cccc(Cl)c2Cl)CC1)C1CCc2nc(N)sc2C1 (stereo in doubt; 6c) : 1.82 nM
2. CCCN(CCN1CCN(c2ccccc2)CC1)C1CCc2nc(N)sc2C1 (stereo in doubt; (-)-31) : 4.15 nM
3. CCCN(CCN1CCN(c2cccc(Cl)c2Cl)CC1)C1CCc2nc(N)sc2C1 (stereo in doubt; (+)-33) : 12 nM

Report Ki for every entry below.
1. CCCN(CCN1CCN(c2ccccc2)CC1)C1CCc2nc(N)sc2C1 (stereo in doubt; 6a)
2. CCCN(CCCCN1CCN(c2ccccc2)CC1)C1CCc2nc(N)sc2C1 (centres undefined)
3. CCCN(CCN1CCN(c2ccccc2OC)CC1)C1CCc2nc(N)sc2C1 (stereo in doubt; 6b)
4. CCCN(CCN1CCN(c2ccccc2)CC1)C1CCc2nocc2C1 (centres undefined)
5. CCCN(CCN1CCN(c2ccccc2)CC1)C1CCc2oncc2C1 (centres undefined)
6. CCCN(CCN1CCN(c2ccccc2)CC1)C1CCc2nn[se]c2C1 (centres undefined)

5.96 nM
12.4 nM
5.09 nM
254 nM
155 nM
40.7 nM

###

Quick note: these are EC50 numbers for system: D(3) dopamine receptor (Homo sapiens, UniProt P35462)
Sequence (P35462 whole entry): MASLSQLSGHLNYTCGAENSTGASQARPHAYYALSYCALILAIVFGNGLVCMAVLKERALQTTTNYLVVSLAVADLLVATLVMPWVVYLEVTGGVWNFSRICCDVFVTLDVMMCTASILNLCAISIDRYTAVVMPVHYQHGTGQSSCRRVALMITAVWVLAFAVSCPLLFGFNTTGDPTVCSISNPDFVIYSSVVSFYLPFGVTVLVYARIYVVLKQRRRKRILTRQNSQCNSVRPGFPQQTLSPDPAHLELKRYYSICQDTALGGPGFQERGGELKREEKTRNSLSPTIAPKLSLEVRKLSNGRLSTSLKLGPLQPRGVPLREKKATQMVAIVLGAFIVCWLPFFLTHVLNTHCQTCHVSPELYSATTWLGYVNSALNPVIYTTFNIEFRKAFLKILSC
Answers are plain numbers, in nM.

1) CCCN(CCN1CCN(c2ccc(-c3ccccc3)cc2)CC1)C1CCc2nc(N)sc2C1 (single isomer, unassigned; (-)) : 0.085

Okay, now this compound:
Determine its reported EC50: CCCN(CCN1CCN(c2cccc(Cl)c2Cl)CC1)C1CCc2nc(N)sc2C1 (stereo in doubt; (-)-33)
0.06

###

Let's go through some recorded pEC50 values for D(2) dopamine receptor (Homo sapiens, UniProt P14416) together.
One number for each entry, as −log10 of the molar value.

1) CCCN(CCN1CCN(c2cccc(Cl)c2Cl)CC1)C1CCc2nc(N)sc2C1 (stereo in doubt; (-)-33) : 7.87

Please turn your attention to the following entry.
// Input: CCCN(CCN1CCN(c2ccc(-c3ccccc3)cc2)CC1)C1CCc2nc(N)sc2C1 (single isomer, unassigned; (-)) . Output its pEC50 only.
7.70

###

Species on record: Rattus norvegicus
ASSAY_PROTOCOL: Selectivity for rat dopamine D3 receptor over rat dopamine D2L receptor
ASSAY_METRIC: Ratio Ki
Give bare numbers.

1. C#CCN(CCN1CCN(c2cccc(Cl)c2Cl)CC1)C1CCc2nc(N)sc2C1 (stereo not given) : 4.92
2. CCCN(CCN1CCN(c2cccc(Cl)c2Cl)CC1)C1CCc2nc(N)sc2C1 (stereo in doubt; (+)-33) : 3.68
3. CCCN(CCN1CCN(c2cccc(Cl)c2Cl)CC1)C1CCc2nc(N)sc2C1 (stereo in doubt; 6c) : 37.6
4. CCCN(CCN1CCN(c2cccc(Cl)c2Cl)CC1)C1CCc2nc(N)sc2C1 (stereo in doubt; (-)-33) : 31.6
5. CCCN(CCN1CCN(c2ccccc2OC)CC1)C1CCc2nc(N)sc2C1 (stereo in doubt; 6b) : 32.6
6. CCCN(CCN1CCN(c2ccccc2OC)CC1)C1CCc2nc(N)sc2C1 (single isomer, unassigned; (-)) : 41.1

Hi team, please reply with Ratio Ki for each item in this list.
1. CCCN(CCN1CCN(c2ccccc2)CC1)C1CCc2nn[se]c2C1 (stereo not given)
2. CCCN(CCN1CCN(c2ccc(-c3ccccc3)cc2)CC1)C1CCc2nc(N)sc2C1 (single isomer, unassigned; (-))
3. CCCN(CCN1CCN(c2ccccc2)CC1)C1CCc2nc(N)sc2C1 (single isomer, unassigned; (+))
4. C#CCN(CCN1CCN(c2ccccc2OC)CC1)C1CCc2nc(N)sc2C1 (stereo not given)

[4.64, 253, 45, 2.33]
